These entries and their values trace back to paper PMC4430447.

Target: human NTCP (Homo sapiens)
Sequence (Q14973 1-349): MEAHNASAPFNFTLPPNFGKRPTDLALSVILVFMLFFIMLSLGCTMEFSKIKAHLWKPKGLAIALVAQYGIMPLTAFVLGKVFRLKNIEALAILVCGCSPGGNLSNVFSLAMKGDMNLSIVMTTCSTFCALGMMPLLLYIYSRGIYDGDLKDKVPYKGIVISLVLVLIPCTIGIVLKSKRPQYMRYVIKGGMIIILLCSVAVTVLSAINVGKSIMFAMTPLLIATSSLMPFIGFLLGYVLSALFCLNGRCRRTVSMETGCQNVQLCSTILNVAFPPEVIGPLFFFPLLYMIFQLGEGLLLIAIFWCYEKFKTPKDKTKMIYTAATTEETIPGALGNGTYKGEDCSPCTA
Test: Uptake study on NTCP-HEK293 cells
Format: cell-based
Conditions: Michaelis-Menten constant of uptake, 5 min, 0-200 μM in HBSS, NTCP-HEK293 cells
In this section we review reported Kt values for a set of molecules.
ATTRIBUTE MEASURED: Kt (µM)

- MOLECULE: "C[C@H](CCC(=O)N[C@@H](CCC(=O)OCc1ccccc1)C(=O)O)[C@H]1CC[C@H]2[C@@H]3[C@H](O)C[C@@H]4C[C@H](O)CC[C@]4(C)[C@H]3CC[C@]12C"
  REPORTED VALUE: 11.7
- MOLECULE: "C[C@H](CCC(=O)NCCS(=O)(=O)O)[C@H]1CC[C@H]2[C@@H]3[C@H](O)C[C@@H]4C[C@H](O)CC[C@]4(C)[C@H]3C[C@H](O)[C@]12C [TCA, taurocholate]"
  REPORTED VALUE: 19.8
- MOLECULE: "C[C@H](CCC(=O)NCC(=O)O)[C@H]1CC[C@H]2[C@@H]3[C@H](O)C[C@@H]4C[C@H](O)CC[C@]4(C)[C@H]3C[C@H](O)[C@]12C [GCA, glycocholate]"
  REPORTED VALUE: 15.8
- MOLECULE: "C[C@H](CCC(=O)O)[C@H]1CC[C@H]2[C@@H]3[C@H](O)C[C@@H]4C[C@H](O)CC[C@]4(C)[C@H]3C[C@H](O)[C@]12C [CA, cholate]"
  REPORTED VALUE: 54.9
- MOLECULE: "C[C@H](CCC(=O)NCC(=O)O)[C@H]1CC[C@H]2[C@@H]3CC[C@@H]4C[C@H](O)CC[C@]4(C)[C@H]3CC[C@]12C [GLCA, glycolithocholate]"
  REPORTED VALUE: 4.87
- MOLECULE: "CC(C)[C@H](NC(=O)CC[C@@H](C)[C@H]1CC[C@H]2[C@@H]3[C@H](O)C[C@@H]4C[C@H](O)CC[C@]4(C)[C@H]3CC[C@]12C)C(=O)O"
  REPORTED VALUE: 9.62
- MOLECULE: "CCCCC1=NC2(CCCC2)C(=O)N1Cc1ccc(-c2ccccc2-c2nnn[nH]2)cc1"
  REPORTED VALUE: 32.7
- MOLECULE: "C[C@H](CCC(=O)O)[C@H]1CC[C@H]2[C@@H]3[C@@H](O)C[C@@H]4C[C@H](O)CC[C@]4(C)[C@H]3CC[C@]12C [UDCA, ursodeoxycholate]"
  REPORTED VALUE: 1.55
- MOLECULE: "C[C@H](CCC(=O)NCC(=O)O)[C@H]1CC[C@H]2[C@@H]3[C@H](O)C[C@@H]4C[C@H](O)CC[C@]4(C)[C@H]3CC[C@]12C [GCDCA, glycochenodeoxycholate]"
  REPORTED VALUE: 10.9
- MOLECULE: "C[C@H](CCC(=O)NCCS(=O)(=O)O)[C@H]1CC[C@H]2[C@@H]3[C@@H](O)C[C@@H]4C[C@H](O)CC[C@]4(C)[C@H]3CC[C@]12C [TUDCA, tauroursodeoxycholate]"
  REPORTED VALUE: 9.53
- MOLECULE: "C[C@H](CCC(=O)NCCS(=O)(=O)O)[C@H]1CC[C@H]2[C@@H]3[C@H](O)C[C@@H]4C[C@H](O)CC[C@]4(C)[C@H]3CC[C@]12C [TCDCA, taurochenodeoxycholate]"
  REPORTED VALUE: 8.12
- MOLECULE: "C[C@H](CCC(=O)NCCS(=O)(=O)O)[C@H]1CC[C@H]2[C@@H]3CC[C@@H]4C[C@H](O)CC[C@]4(C)[C@H]3CC[C@]12C [TLCA, taurolithocholate]"
  REPORTED VALUE: 6.50
